The reported numbers originate from paper PMC9266004.

- System Name: hTRPA1 ARD recombinant protein (Homo sapiens, UniProt O75762)
- Sequence (O75762 62-609): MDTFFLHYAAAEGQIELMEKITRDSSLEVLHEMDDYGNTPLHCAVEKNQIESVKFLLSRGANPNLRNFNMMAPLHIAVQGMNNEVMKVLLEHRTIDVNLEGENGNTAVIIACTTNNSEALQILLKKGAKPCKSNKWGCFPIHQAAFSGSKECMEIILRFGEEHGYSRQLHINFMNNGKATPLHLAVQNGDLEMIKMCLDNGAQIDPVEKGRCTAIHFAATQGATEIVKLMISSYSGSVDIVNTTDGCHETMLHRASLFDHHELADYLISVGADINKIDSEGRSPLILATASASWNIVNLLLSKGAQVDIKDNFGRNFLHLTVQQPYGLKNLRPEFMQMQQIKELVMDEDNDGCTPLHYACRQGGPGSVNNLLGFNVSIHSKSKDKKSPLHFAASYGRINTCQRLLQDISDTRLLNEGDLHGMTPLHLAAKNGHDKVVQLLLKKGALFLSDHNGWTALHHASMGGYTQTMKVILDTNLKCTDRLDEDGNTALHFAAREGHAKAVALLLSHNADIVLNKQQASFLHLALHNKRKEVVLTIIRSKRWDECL
- Protocol Summary: LSPR binding analysis (OpenSPR, COOH chip)
Measured pKd accompanies every entry in the list below.
Scale explanation: pKd corresponds to minus log10 of a concentration expressed in moles per litre.

compound=CCCOCCN(C(=O)CCl)c1c(CC)cccc1CC measured_number=3.51
compound="CCc1cccc(C)c1N(C(=O)CCl)C(C)COC (stereo not drawn)" measured_number=3.44

Documented pKd of `CCC(=O)Nc1ccc(Cl)c(Cl)c1` : 4.79

---

Measured pIC50 accompanies every entry in the list below.
- System: A549 cells
- Protocol Summary: CCK-8 cell viability assay in WT A549 cells
- Type: cell-based, human
- Study Conditions: WT A549 cells pre-treated with HC-030031 50 μM, then AHs 24 h, CCK-8; read-out: IC50 values of AHs, A549 Cells + HC-030031 50 μM
Scale explanation: pIC50 corresponds to minus log10 of a concentration expressed in moles per litre.

Recorded pIC50, per entry:
compound=CCOCN(C(=O)CCl)c1c(C)cccc1CC measured_number=3.19
compound=CCCCOCN(C(=O)CCl)c1c(CC)cccc1CC measured_number=2.76
compound=CCC(=O)Nc1ccc(Cl)c(Cl)c1 measured_number=2.64

Documented pIC50 of `CCc1cccc(CC)c1N(COC)C(=O)CCl` : 3.14

Documented pIC50 of `CCCOCCN(C(=O)CCl)c1c(CC)cccc1CC` : 2.35

Documented pIC50 of CCc1cccc(C)c1N(C(=O)CCl)C(C)COC (stereo not shown) : 3.21

Documented pIC50 of `CCc1cccc(C)c1N(COC(C)C)C(=O)CCl` : 2.77
